experiment: Probe fluorescence ratio response to stearic acid relative to ADIFAB2
Type: binding
stated.conditions: response relative to ADIFAB2
Answer each item with its documented DR/DR SA.
Number only, no unit.

So for 18I 31L 72A (protein, listed as Rattus norvegicus, PEPTIDE (1)...(131) wild-type rat intestinal fatty acid binding protein) AFDGTWKVDRNENYEKFIEKMGINVVKRKLLAHDNLKLTITQEGNKFTVKESSNFRNIDVVFELGVDFAYSAADGTELTGTWTMEGNKLVGKFKRVDNGKELIAVREISGNELIQTYTYEGVEAKRIFKKE , the logged DR/DR SA turned out to be 0.305

In plain terms, 18I 31Y 73V 72A (protein, listed as Rattus norvegicus, PEPTIDE (1)...(131) wild-type rat intestinal fatty acid binding protein) AFDGTWKVDRNENYEKFIEKMGINVVKRKLYAHDNLKLTITQEGNKFTVKESSNFRNIDVVFELGVDFAYSAVDGTELTGTWTMEGNKLVGKFKRVDNGKELIAVREISGNELIQTYTYEGVEAKRIFKKE has a documented DR/DR SA of 1.047

Quick note, DR/DR SA for 72T 73W 74E (protein, listed as Rattus norvegicus, PEPTIDE (1)...(131) wild-type rat intestinal fatty acid binding protein) AFDGTWKVDRNENYEKFMEKMGINVVKRKLGAHDNLKLTITQEGNKFTVKESSNFRNIDVVFELGVDFAYSTWEGTELTGTWTMEGNKLVGKFKRVDNGKELIAVREISGNELIQTYTYEGVEAKRIFKKE landed at 0.877
